Target: RXRα (Homo sapiens)
Construct: expressed in transfected cells
Sequence (P19793 1-462): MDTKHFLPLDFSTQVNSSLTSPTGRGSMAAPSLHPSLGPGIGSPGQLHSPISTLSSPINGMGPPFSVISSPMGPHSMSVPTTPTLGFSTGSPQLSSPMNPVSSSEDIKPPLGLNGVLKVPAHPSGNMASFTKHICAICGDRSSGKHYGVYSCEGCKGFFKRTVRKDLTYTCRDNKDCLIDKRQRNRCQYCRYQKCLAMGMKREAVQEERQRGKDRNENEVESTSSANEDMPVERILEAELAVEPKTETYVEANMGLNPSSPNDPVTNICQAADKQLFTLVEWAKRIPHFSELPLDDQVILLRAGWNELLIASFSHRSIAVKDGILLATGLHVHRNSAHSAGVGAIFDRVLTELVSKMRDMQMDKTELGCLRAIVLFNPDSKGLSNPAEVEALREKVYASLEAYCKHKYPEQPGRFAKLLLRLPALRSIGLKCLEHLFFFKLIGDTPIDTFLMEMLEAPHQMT
Assay: ligand binding assay
Details: read-out: RXR Bind. Ki α
METRIC: Ki (nM)
Provide the reading as a plain figure in nM.

The recorded Ki for entry CCCOc1c(\C(=C/C=C/C(C)=C/C(=O)O)CC)cc(C(C)C)cc1C(C)C equals 1

---

The listing below reports Ki for molecules tested on RXRβ (Homo sapiens, UniProt P28702).
Sequence (P28702 whole entry): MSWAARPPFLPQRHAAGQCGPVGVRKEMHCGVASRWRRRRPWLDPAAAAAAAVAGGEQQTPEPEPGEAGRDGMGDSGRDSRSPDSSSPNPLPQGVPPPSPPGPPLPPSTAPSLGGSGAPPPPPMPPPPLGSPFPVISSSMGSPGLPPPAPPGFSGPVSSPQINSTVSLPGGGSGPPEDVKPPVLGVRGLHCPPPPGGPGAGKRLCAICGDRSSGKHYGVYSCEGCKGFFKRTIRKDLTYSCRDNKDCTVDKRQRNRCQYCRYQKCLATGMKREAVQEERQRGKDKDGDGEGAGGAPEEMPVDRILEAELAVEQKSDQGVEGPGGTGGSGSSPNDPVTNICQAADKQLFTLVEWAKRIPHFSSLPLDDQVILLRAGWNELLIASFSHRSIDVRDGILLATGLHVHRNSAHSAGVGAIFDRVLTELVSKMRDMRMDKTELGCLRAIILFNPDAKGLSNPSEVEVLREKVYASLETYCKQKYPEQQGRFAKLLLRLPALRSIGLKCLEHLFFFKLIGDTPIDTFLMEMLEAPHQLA
Provide the reading as a plain figure in nM.

CCCOc1c(\C(=C/C=C/C(C)=C/C(=O)O)CC)cc(C(C)C)cc1C(C)C [Compound 8]; 12

Would you kindly look at the next entry?
The recorded Ki for entry CCCOc1c(\C(C)=C/C=C/C(C)=C/C(=O)O)cc(C(C)C)cc1C(C)C [Compound 16] equals 12

---

Protein target, amino acids: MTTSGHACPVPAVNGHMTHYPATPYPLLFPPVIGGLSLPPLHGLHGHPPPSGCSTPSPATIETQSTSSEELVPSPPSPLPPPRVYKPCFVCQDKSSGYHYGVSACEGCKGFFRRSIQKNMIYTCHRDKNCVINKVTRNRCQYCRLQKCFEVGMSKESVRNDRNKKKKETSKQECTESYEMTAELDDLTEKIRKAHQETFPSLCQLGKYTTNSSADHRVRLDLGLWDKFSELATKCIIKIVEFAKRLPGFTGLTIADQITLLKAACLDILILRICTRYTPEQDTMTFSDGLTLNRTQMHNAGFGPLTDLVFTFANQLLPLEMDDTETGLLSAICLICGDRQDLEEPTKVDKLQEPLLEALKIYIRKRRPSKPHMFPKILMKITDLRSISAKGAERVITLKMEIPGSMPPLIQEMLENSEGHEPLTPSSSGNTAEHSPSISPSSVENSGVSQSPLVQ
METRIC: Ki (nM)
Provide the reading as a plain figure in nM.

The recorded Ki for entry CCCOc1c(\C(C)=C/C=C/C(C)=C/C(=O)O)cc(C(C)C)cc1C(C)C equals 200

---

Target: RARγ (Homo sapiens)
Sequence (P13631 whole entry, species assumed): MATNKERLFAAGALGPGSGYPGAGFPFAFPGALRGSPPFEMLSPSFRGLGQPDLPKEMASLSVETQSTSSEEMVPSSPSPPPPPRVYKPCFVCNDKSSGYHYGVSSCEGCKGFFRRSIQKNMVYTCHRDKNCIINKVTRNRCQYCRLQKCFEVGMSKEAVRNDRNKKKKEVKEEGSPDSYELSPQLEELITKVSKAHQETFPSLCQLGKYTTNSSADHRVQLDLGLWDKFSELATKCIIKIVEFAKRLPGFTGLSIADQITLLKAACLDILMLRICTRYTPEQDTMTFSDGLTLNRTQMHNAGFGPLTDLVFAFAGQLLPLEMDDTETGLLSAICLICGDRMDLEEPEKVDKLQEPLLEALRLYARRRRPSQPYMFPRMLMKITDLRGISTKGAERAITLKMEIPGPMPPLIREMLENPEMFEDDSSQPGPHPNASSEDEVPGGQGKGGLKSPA
METRIC: Ki

I looked up CCCOc1c(\C(C)=C/C=C/C(C)=C/C(=O)O)cc(C(C)C)cc1C(C)C [Compound 16] and its Ki for RARγ (Homo sapiens) was 550 nM

---

Protein target, amino acids: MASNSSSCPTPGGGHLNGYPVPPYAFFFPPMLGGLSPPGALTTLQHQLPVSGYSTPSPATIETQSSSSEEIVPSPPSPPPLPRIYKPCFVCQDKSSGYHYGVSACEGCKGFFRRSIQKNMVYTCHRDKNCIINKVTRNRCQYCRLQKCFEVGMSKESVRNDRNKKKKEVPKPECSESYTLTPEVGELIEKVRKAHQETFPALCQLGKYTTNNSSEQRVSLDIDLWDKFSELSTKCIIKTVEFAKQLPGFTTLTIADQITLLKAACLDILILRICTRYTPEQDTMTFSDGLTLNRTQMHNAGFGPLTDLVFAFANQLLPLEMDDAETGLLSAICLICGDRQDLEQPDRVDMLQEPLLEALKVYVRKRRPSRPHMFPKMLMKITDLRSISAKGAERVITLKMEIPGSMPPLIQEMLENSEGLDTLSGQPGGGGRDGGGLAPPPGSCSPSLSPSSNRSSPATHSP
METRIC: Ki (nM)
Provide the reading as a plain figure in nM.

The recorded Ki for entry CCCOc1c(\C(=C/C=C/C(C)=C/C(=O)O)CC)cc(C(C)C)cc1C(C)C equals 170

Values compiled from patent US6759546B1.
